Target or system human G9a enzyme (Homo sapiens, UniProt Q96KQ7); recorded quantity IC50.
ATTRIBUTE_MEASURED: IC50

{"columns": ["COMPOUND", "TESTED_TARGET", "VALUE_OBSERVED"],
 "data": [
  ["COc1cc2c(NC3CCN(C)CC3)cc(-c3ccccc3C)nc2cc1OCCCN1CCCC1 [Compound 3-34]", "human G9a enzyme (Homo sapiens, UniProt Q96KQ7)", "< 100 nM"],
  ["COc1cc2c(NC3CCN(C)CC3)cc(C3CCC(C)O3)nc2cc1OCCCN1CCCC1 (stereo not shown) [Compound 15-01]", "human G9a enzyme (Homo sapiens, UniProt Q96KQ7)", "< 100 nM"],
  ["COc1cc2c(NC3CCNCC3)cc(-c3ccc(C)o3)nc2cc1OCCCN1CCCC1 [Compound 3-08]", "human G9a enzyme (Homo sapiens, UniProt Q96KQ7)", "< 100 nM"],
  ["COc1cc2c(NC3CCN(C)C(=O)C3)cc(-c3ccc(C)[nH]3)nc2cc1OCC1CCNCC1 (stereo not shown) [Compound 11-11]", "human G9a enzyme (Homo sapiens, UniProt Q96KQ7)", "500 to 1000 nM"],
  ["COc1cc2c(NC3CCN(C)CC3)cc(-c3ccccc3)nc2cc1OCCCN1CCCC1 [Compound 3-29]", "human G9a enzyme (Homo sapiens, UniProt Q96KQ7)", "< 100 nM"],
  ["COc1cc2c(NC3CCN(C)CC3)cc(N3CCN(C)CC3)nc2cc1OCCCN1CCCC1 [Compound 1-02]", "human G9a enzyme (Homo sapiens, UniProt Q96KQ7)", "< 100 nM"],
  ["COc1cc2c(NC3CCOCC3)cc(-c3ccc(C)o3)nc2cc1OCCCN1CCCC1 [Compound 3-16]", "human G9a enzyme (Homo sapiens, UniProt Q96KQ7)", "100 to 500 nM"],
  ["COc1cc2c(NC3CCN(C)CC3)cc(-c3cc(C)oc3C)nc2cc1OCCCN1CCCC1 [Compound 3-35]", "human G9a enzyme (Homo sapiens, UniProt Q96KQ7)", "< 100 nM"],
  ["COc1cc2c(NC3CCN(C)CC3)cc(-c3ccc(C)o3)nc2cc1OC1CC2(CNC2)C1 [Compound 16-01]", "human G9a enzyme (Homo sapiens, UniProt Q96KQ7)", "1000 to 10000 nM"],
  ["COc1cc2c(NC3CCN(C)CC3)cc(-c3ccc(-c4ccccc4)o3)nc2cc1OCCCN1CCCC1 [Compound 3-32]", "human G9a enzyme (Homo sapiens, UniProt Q96KQ7)", "1000 to 10000 nM"],
  ["COc1cc2c(NC3CCN(C4CC4)CC3)cc(-c3ccc(C)o3)nc2cc1OCCCN1CCCC1 [Compound 3-20]", "human G9a enzyme (Homo sapiens, UniProt Q96KQ7)", "< 100 nM"],
  ["COc1cc2c(NC3CCN(C)CC3)cc(-c3ccoc3)nc2cc1OCCCN1CCCC1 [Compound 3-27]", "human G9a enzyme (Homo sapiens, UniProt Q96KQ7)", "< 100 nM"],
  ["COc1cc2c(NC3CCN(C)CC3)cc(-c3ccc(C#N)o3)nc2cc1OCCCN1CCCC1 [Compound 10-01]", "human G9a enzyme (Homo sapiens, UniProt Q96KQ7)", "100 to 500 nM"],
  ["CCc1ccc(-c2cc(NC3CCN(C4CC4)CC3)c3cc(OC)c(OCCCN4CCCC4)cc3n2)o1 [Compound 3-48]", "human G9a enzyme (Homo sapiens, UniProt Q96KQ7)", "< 100 nM"],
  ["COc1cc2c(NCC3CCCC3)cc(-c3ccc(C)o3)nc2cc1OCCCN1CCCC1 [Compound 3-14]", "human G9a enzyme (Homo sapiens, UniProt Q96KQ7)", "1000 to 10000 nM"],
  ["COc1cc2c(NC3CCC(C)(O)CC3)cc(-c3ccc(C)o3)nc2cc1OCCCN1CCCC1 (stereo not shown) [Compound 3-45]", "human G9a enzyme (Homo sapiens, UniProt Q96KQ7)", "100 to 500 nM"]
]}
